These measurements were taken from ChEMBL document CHEMBL1255199.

# experiment summary: Lipophilicity, log D of the compound at pH 7.4
# measurement parameters: buffer
# key: entry, value: logD

Known logD results, listed for orientation:
- entry smiles: "COc1cc2[nH]c(C)c(CC(C)C)c(=O)c2cc1Cl"
  logD: 2.99
- entry smiles: "CCCCC/C=C/c1c(C)[nH]c2cc(OC)c(Cl)cc2c1=O"
  logD: 3.57
- entry smiles: "CCCCCCC/C=C/c1c(C)[nH]c2ccccc2c1=O"
  logD: 4.26
- entry smiles: "C=C(CCCCC)c1c(C)[nH]c2cc(OC)c(Cl)cc2c1=O"
  logD: 3.58
- entry smiles: "Cc1[nH]c2c(Cl)cccc2c(=O)c1Cc1ccccc1"
  logD: 2.78
- entry smiles: "COc1cc2[nH]c(C)c(Br)c(=O)c2cc1Cl"
  logD: 0

// below: logD requested for another compound
Look up logD of `Cc1[nH]c2ccccc2c(=O)c1/C=C/c1ccc(O)cc1` and report it.
1.77
